- assay target: 5-hydroxytryptamine receptor 2A (Homo sapiens)
- test summary: 5-hydroxytryptamine receptor 2A (HTR2A) small molecule antagonists, cell-based qHTS assay (AID 1963586); note: nearly all actives have a fitted effect of over 45% in size
- test conditions: HTR2A-CHO cells, DOI-induced calcium flux, fluorescence; series mostly up to 61.5 µM
Results filed as inconclusive are left out. Calls of active or inactive are those of the source. Calls come from the whole dose curve.
Classes used: active, inactive

O=C(Cl)c1cc(Cl)cc(Cl)c1 ... inactive
CC(O)CC(C)O (stereo not drawn) ... inactive
CCN(CC)c1ccc2c(-c3ccccc3C(=O)O)c3ccc(=[N+](CC)CC)cc-3oc2c1 ... inactive
COc1ccc2cc(S(=O)(=O)N[C@H](CC(=O)N[C@H](Cc3ccc(CN4[C@H](C)CCC[C@@H]4C)cc3)C(=O)N(C)C(C)C)c3ccc4c(c3)OCO4)ccc2c1 ... inactive
CCCC(=O)OC ... inactive
CCS(=O)(=O)c1ccc(OC)c(C(=O)OC)c1 ... inactive
Cc1c(N)cccc1N ... inactive
COC(=O)CC(C)=O ... inactive
O=C=Nc1ccc(Cl)c(Cl)c1 ... inactive
COc1ccc(N=Nc2cc(C)c(N=Nc3ccc(S(=O)(=O)O)cc3)cc2OC)cc1 ... inactive
CN(C)[C@@H]1C(=O)C(C(N)=O)=C(O)[C@@]2(O)C(=O)C3=C(O)c4c(O)cccc4C[C@H]3C[C@@H]12 ... inactive
COc1ccc(CCO)cc1 ... inactive
O=C1Cc2ccccc2C1 ... inactive
CCC(C)(CCC(C)C)C(=O)[O-].CCC(C)(CCC(C)C)C(=O)[O-].[Zn+2] (stereo not drawn) ... inactive
CCCCC=O ... inactive
NCCCCCCNCCCCCCN ... inactive
O=C(O)CCn1c2c(c3ccccc31)C[C@H](NS(=O)(=O)c1ccc(F)cc1)CC2 ... inactive
CCN(CC)CCOc1ccc2c(c1)C(=O)c1cc(OCCN(CC)CC)ccc1-2 ... inactive
CC(=O)CC(=O)c1ccccc1 ... inactive
CCN1CCOCC1 ... inactive
COCCOC[C@H](CC1(C(=O)NC2CCC(C(=O)O)CC2)CCCC1)C(=O)Oc1ccc2c(c1)CCC2 (stereo partly drawn) ... inactive
CC[N+](CC)(CC)CCOc1ccc(/C=C/c2ccccc2)cc1 ... active
O=C(O)CCc1nc2ccccc2[nH]1 ... inactive
Oc1ccc2c(c1)Cc1ccccc1-2 ... inactive
COc1cc(N)ccc1C ... inactive
O=C(CN1CCNCC1)NC1CCCCC1 ... inactive
O=C(O)c1ccccc1-c1ccc(C(F)(F)F)cc1 ... inactive
CCCCOc1ccc(CC(=O)NO)cc1 ... inactive
CC(C)(C)c1ccc(-c2ccc(C(C)(C)C)cc2)cc1 ... inactive
COC(=O)c1ccccc1OC ... inactive
CCN1CCN(C(=O)N[C@@H](C(=O)N[C@@H]2C(=O)N3C(C(=O)O)=C(CSc4nnnn4C)CS[C@H]23)c2ccc(O)cc2)C(=O)C1=O ... inactive
Cc1nc2ccc(CN(C)c3ccc(C(=O)N[C@@H](CCC(=O)O)C(=O)O)s3)cc2c(=O)[nH]1 ... inactive
Cc1cccc(OCCOc2cccc(C)c2)c1 ... inactive
Cc1cc(C)c(/C=C2\C(=O)Nc3ccccc32)[nH]1 ... inactive
COCCOc1cc2cc(C(=O)NC3CCN(C(C)C)CC3)n(CC(=O)Nc3ccc(Cl)cn3)c2cn1 ... inactive
C1COCO1 ... inactive
O=C(O)[C@H](O)c1ccccc1 ... inactive
CCN(C(=O)N(CC)c1ccccc1)c1ccccc1 ... inactive
CC/C=C\CCCCCCCCCCOC(C)=O ... inactive
CCCCOC(=O)CCC(C)=O ... inactive
O=C1Nc2ccc([N+](=O)[O-])cc2C1=O ... inactive
CCCCCCCCCCCCCCC[C@H](O)[C@@H](N)CO ... inactive
Cc1cc(O)c2ccccc2c1O ... inactive
CC(=O)N(C)C ... inactive
Oc1ccccc1-c1nnco1 ... inactive
C=CC(=O)OCC1CC2CC1C1CCC(COC(=O)C=C)C21 (stereo not drawn) ... inactive
C=CCOC(=O)c1ccc(C(=O)OCC=C)c(C(=O)OCC=C)c1 ... active
CC=O ... inactive
CCCCOc1ccc(N)cc1 ... inactive
CCOc1ccc(NC(N)=O)cc1 ... inactive
O=C1c2ccccc2C(=O)c2c(O)ccc(O)c21 ... inactive
O=C1C=CC(=O)N1c1ccc(Cc2ccc(N3C(=O)C=CC3=O)cc2)cc1 ... active
CC(C)c1cccc(C(C)C)c1NC(=O)NS(=O)(=O)c1cc(C(C)(C)O)co1 ... inactive
